Subject Of Test: human Nav1.1 (Homo sapiens)
Construct: host or cells: HEK293
Assay Text: Amplification of Nav1.1-derived voltage-gated sodium current (Nav1.1 current), automated patch clamp (Test 1)
Format: cell-based
Conditions Used: Concentration for evaluation 10 μM; HEK293 cell line stably expressing human Nav1.1
Doc: threshold 200% (exclusive). Items with Nav1.1 current amplification rate (%) beneath it return t; others return f.

Sample answers from the record:
Molecule	Classification
N#Cc1ccc(NC(=O)Cn2nc(N3CCCC4(CC4)C3)ccc2=O)cc1	t
COc1nc2cc(NC(=O)Cn3nc(C4=CCC(C)CC4)ccc3=O)ccc2o1 (stereo not drawn)	f
Cc1ccc(-c2ccc(=O)n(CC(=O)N3CCc4cnccc43)n2)cc1	t
COCOc1cccc2c1CCN2C(=O)Cn1nc(C2=CCC(C)(C)CC2)ccc1=O	f
CN(c1cnc2cnn(CC(=O)Nc3cc4ccccc4nn3)c2n1)C1CC1	t
C[C@H]1CC[C@H](c2ccc(=O)n(CC(=O)Nc3ccc(C#N)cc3)n2)CC1	t
N#Cc1ccc(NC(=O)Cn2nc(N3CCC4(CCC4)CC3)ccc2=O)cc1	f
N#Cc1ccc(NC(=O)Cn2nc(N3CCC4(CCCO4)CC3)ccc2=O)cc1	t

Prompt: For this molecule, is Nav1.1 current amplification rate (%) lower than 200%? `CN(c1cnc2cnn(CC(=O)Nc3cccnc3)c2n1)C1CC1`
Response: t

Prompt: For this molecule, is Nav1.1 current amplification rate (%) lower than 200%? COc1ncc(C2=CCN(C(=O)Cn3nc(C4=CCC(C)CC4)ccc3=O)CC2)cn1 (stereo not drawn)
Response: f

Prompt: For this molecule, is Nav1.1 current amplification rate (%) lower than 200%? CC1CC=C(c2ccc(=O)n(CC(=O)N3CC=C(c4ccccc4)C3)n2)CC1 (stereo not drawn)
Response: t

Prompt: For this molecule, is Nav1.1 current amplification rate (%) lower than 200%? `CC1CCN(c2ccc(=O)n(CC(=O)Nc3cncc(C(F)(F)F)c3)n2)CC1`
Response: t

Prompt: For this molecule, is Nav1.1 current amplification rate (%) lower than 200%? `COc1cccc2c1CCN2C(=O)Cn1nc(C2=CCC(C)(C)CC2)ccc1=O`
Response: t

Prompt: For this molecule, is Nav1.1 current amplification rate (%) lower than 200%? `N#Cc1ccc(NC(=O)Cn2nc(N3CCC4(CCCCC4)C3)ccc2=O)cc1`
Response: f

Prompt: For this molecule, is Nav1.1 current amplification rate (%) lower than 200%? CC1CC=C(c2ccc(=O)n(CC(=O)N3CCC(Cc4ccccc4)C3)n2)CC1 (stereo not drawn)
Response: t

Prompt: For this molecule, is Nav1.1 current amplification rate (%) lower than 200%? `C[C@H]1CC[C@@H](c2ccc(=O)n(CC(=O)Nc3ccc(C#N)cc3)n2)CC1`
Response: t

Prompt: For this molecule, is Nav1.1 current amplification rate (%) lower than 200%? `CC1(C)CC=C(c2ccc(=O)n(CC(=O)Nc3ccn4ccnc4c3)n2)C1`
Response: t

This collection of values is drawn from patent US20230109839A1.
